// values below are reported inhibition at 10 µM
System: BV-2
test.name: Inhibition of NO production in LPS-activated mouse BV2 cells at 10 uM after 24 hrs by Griess method relative to control
Type: functional
run.conditions: BV-2, 24 h
Response body: numeric value in %, unit text excluded.

Known inhibition at 10 µM results, listed for orientation:
* O=c1c(-c2ccc(O)cc2)c[nH]c2ccccc12 | 29.5
* COc1ccc(-c2c[nH]c3cc(OC)cc(OC)c3c2=O)cc1 | 23.2
* COc1ccc(-c2cn(C)c3ccccc3c2=O)cc1 | 31.9
* O=c1c(-c2ccc(O)cc2)c[nH]c2cc(O)cc(O)c12 | 45
* Cn1cc(-c2ccc(O)cc2)c(=O)c2ccccc21 | 47.4

Lookup result for CCn1cc(-c2ccc(O)cc2)c(=O)c2ccccc21 ; measured inhibition at 10 µM: 27

====

Tested on: BV-2
test.name: Inhibition of NO production in LPS-activated mouse BV2 cells at 10 uM after 24 hrs by Griess method relative to control
Type: functional
run.conditions: BV-2, 24 h
// values below are reported inhibition at 10 µM
Response body: numeric value in %, unit text excluded.

• CCn1cc(-c2ccc(OC)cc2)c(=O)c2ccccc21 = 14.9
• CCn1cc(-c2ccc(O)cc2)c(=O)c2c(O)cc(O)cc21 = 58.1
• CCn1cc(-c2ccc(OC)cc2)c(=O)c2c(OC)cc(OC)cc21 = 27.3

Lookup result for Cn1cc(-c2ccc(O)cc2)c(=O)c2c(O)cc(O)cc21 ; measured inhibition at 10 µM: 39.3

Source of measurements: ChEMBL document CHEMBL1154995
